- TEST_SYSTEM: T1, HLA-A*0201 (human)
- T1 construct: MHC monomer first loaded with a UV-sensitive peptide that is cleaved and exchanged for the test peptide; captured on streptavidin; also called peptide-receptive MHC molecules
- METHOD: UV-ligand exchange, streptavidin/anti-b2m sandwich ELISA
Reported Average exchange yield in % values for the following binders.
Number only, in %; omit the unit.

# annotated cases, reported Average exchange yield in % shown
INSERT INTO measurements (binder, readout_number) VALUES
  ('NLIEKSIYL (synthetic peptide from DST) [DST-001]', 50),
  ('YLAPFLRNV (synthetic peptide from CNOT1) [CNOT1-001]', 57),
  ('SLYDNQITTV (synthetic peptide from SLIT1, SLIT2) [SLI-001]', 47),
  ('ALVDHTPYL (synthetic peptide from VCAN) [VCAN-002]', 49),
  ('TLTNIIHNL (synthetic peptide from ORMDL1) [ORMDL1-002]', 61);

Average exchange yield in % for AILDTLYEV (synthetic peptide from PLEKHA8) [PLEKHA8-001] ? 47

Each recorded value in this set is attributed to patent US20250066422A1.
